Measured values drawn from paper PMC6039096 for this set.

targetOrTestSystem: EZH2 (Homo sapiens, UniProt Q15910)
Sequence (Q15910 whole entry): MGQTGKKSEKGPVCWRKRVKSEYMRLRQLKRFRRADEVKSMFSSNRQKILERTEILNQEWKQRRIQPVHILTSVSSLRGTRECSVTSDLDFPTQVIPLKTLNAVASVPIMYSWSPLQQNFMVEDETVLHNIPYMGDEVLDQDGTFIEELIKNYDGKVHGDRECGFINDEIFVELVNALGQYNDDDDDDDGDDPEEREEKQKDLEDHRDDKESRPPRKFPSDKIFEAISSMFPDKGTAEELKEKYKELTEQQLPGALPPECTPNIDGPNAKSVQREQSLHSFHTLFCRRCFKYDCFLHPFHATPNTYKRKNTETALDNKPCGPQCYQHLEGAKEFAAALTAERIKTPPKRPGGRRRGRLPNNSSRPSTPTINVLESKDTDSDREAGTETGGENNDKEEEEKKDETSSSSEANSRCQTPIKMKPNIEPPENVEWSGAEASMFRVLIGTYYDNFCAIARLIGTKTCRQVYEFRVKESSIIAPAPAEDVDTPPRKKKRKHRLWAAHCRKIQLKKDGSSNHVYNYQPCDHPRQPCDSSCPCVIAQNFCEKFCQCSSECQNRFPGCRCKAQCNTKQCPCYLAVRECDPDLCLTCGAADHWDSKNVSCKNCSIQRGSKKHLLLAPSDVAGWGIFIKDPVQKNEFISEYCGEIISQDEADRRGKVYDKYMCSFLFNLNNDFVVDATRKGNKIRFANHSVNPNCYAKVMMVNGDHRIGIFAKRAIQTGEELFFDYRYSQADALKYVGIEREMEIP
assayInfo: biochemical inhibition assay with recombinant EZH2
recordedMetric: Ki (nM)
Hi! Could you send only the number? It should be in nM, unit omitted.

What is its Ki for EZH2 (Homo sapiens, UniProt Q15910)? Entry: CCCc1cc(C)[nH]c(=O)c1CNC(=O)c1cc(-c2ccc(N3CCN(C)CC3)nc2)nc2c1cnn2C(C)C
2.2

* * *

targetOrTestSystem: EZH1 (Homo sapiens, UniProt Q92800)
Sequence (Q92800 whole entry): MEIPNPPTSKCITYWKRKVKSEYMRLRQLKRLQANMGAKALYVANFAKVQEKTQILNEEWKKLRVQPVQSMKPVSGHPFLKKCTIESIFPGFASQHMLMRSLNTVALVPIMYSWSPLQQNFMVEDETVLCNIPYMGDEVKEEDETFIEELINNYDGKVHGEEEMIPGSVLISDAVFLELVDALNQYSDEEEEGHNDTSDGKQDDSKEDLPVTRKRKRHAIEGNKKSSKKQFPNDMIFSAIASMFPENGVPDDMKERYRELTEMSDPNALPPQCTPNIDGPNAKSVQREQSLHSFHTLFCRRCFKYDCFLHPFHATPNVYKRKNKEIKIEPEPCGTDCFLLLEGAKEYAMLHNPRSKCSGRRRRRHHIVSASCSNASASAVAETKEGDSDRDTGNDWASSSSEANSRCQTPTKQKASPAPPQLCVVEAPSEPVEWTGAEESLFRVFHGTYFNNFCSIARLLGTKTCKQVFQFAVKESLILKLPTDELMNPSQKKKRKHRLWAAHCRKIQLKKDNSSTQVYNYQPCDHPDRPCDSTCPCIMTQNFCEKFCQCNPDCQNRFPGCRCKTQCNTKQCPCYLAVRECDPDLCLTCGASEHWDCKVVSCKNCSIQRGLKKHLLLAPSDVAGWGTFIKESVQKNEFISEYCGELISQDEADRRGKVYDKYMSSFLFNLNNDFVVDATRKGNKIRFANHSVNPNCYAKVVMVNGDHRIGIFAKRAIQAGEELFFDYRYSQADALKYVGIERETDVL
assayInfo: biochemical inhibition assay with recombinant EZH1
recordedMetric: Ki (nM)
Numbers only; they are read as nM.

Which Ki is reported for this compound? CCCc1cc(C)[nH]c(=O)c1CNC(=O)c1cc(-c2ccc(N3CCN(C)CC3)nc2)nc2c1cnn2C(C)C
26.5
